Where these numbers come from: patent US12421217B2

Can you tell me IC50 for the items I'm about to list?
STUDY SYSTEM: recombinant human DHODH (Homo sapiens)
Construct: DHODH, 31-395 aa, Human, His tag, E. coli, ATGP1615; His tag
Sequence (Q02127 31-395): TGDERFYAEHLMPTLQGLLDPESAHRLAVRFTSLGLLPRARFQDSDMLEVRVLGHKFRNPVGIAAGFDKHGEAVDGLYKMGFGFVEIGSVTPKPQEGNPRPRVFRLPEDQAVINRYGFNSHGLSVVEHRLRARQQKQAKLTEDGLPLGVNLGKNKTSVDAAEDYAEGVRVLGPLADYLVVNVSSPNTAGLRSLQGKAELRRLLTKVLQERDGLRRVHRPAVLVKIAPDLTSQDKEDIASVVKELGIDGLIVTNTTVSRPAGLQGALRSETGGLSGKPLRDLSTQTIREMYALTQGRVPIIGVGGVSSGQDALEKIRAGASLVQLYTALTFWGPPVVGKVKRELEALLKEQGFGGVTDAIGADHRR
EXPERIMENTAL DETAILS: Enzyme reaction inhibition test (DHODH enzyme assay, DCIP quenching)
APPLIED CONDITIONS: DCIP absorbance 600 nm, 50 minutes, read-out: Enzyme reaction inhibitory effect (IC50)

Considering COc1c(Nc2ncc(C3CC3)nc2C(=O)O)cccc1C1=CCOCC1 [Example 19-20] , its IC50 with recombinant human DHODH (Homo sapiens) was recorded as 10 to 100 nM

Considering O=C(O)c1nc(C2CC2)cnc1Nc1cccc(C2CCOCC2)c1OCC(F)(F)F [Example 4] , its IC50 with recombinant human DHODH (Homo sapiens) was recorded as < 10 nM

Considering O=C(O)c1nc(C2CC2)cnc1Nc1cc(F)cc(C2CCOCC2)c1OC(F)F [Example 11] , its IC50 with recombinant human DHODH (Homo sapiens) was recorded as < 10 nM

Considering O=C(O)c1nc(C2CC2)cnc1Nc1cc(F)cc(C2CCOCC2)c1OCC(F)(F)F [Example 6] , its IC50 with recombinant human DHODH (Homo sapiens) was recorded as < 10 nM

Considering CC(Oc1c(Nc2ncc(C3CC3)nc2C(=O)O)cccc1C1=CCOCC1)C(F)(F)F (centres unmarked) [Example 19-6] , its IC50 with recombinant human DHODH (Homo sapiens) was recorded as 10 to 100 nM

Considering CCOc1ccc(Nc2ncc(C3CC3)nc2C(=O)O)cc1C1=CCOCC1 [Example 19-24] , its IC50 with recombinant human DHODH (Homo sapiens) was recorded as 10 to 100 nM

Considering CCc1cnc(Nc2cccc(C3=CCOCC3)c2OCC(F)(F)F)c(C(=O)O)n1 [Example 19-32] , its IC50 with recombinant human DHODH (Homo sapiens) was recorded as 10 to 100 nM

Considering O=C(O)c1nc(C2CC2)cnc1Nc1cccc(C2=CCOCC2)c1OCC(F)(F)F [Example 2] , its IC50 with recombinant human DHODH (Homo sapiens) was recorded as < 10 nM
